Measured dCas9 with SSAP activity (normalized) of individual entries
# Tested on: gene editing with dCas9
# Assay Summary: Screen of 322 new SSAP proteins, gene editing activity with dCas9 (Table 5)
# Format: cell-based
# Protocol Conditions: normalized
Property Label: dCas9 with SSAP activity (normalized)

INSERT INTO measurements (molecule, experimental_value) VALUES
  ('SSAP_57: SEQ ID NO: 226; Pirellula sp. SH-Sr6A (protein, listed as Pirellula sp.) SEATKEAKPETAIAKKPNGIKDWLKSDALKTQIASVAPKHMAPERVMRIALNAVSRTPKLADCTPESFMRCLLDLSSWGLVPDGRHAHLIPYGTECTLVLDYKGLVTLAYRSGWVKKIHADVVFEGDIFVYSLGTVCQHIPWEFRDDANKPEHKGHFRAAYCVVTMADGIEKHEVMTASEIDAIKAKSRSGNSGPWKDHYTEMAKKTVYRRASKWLPLSPEQADAMERDDDRIIDAVSVAVTQRLSKAAMPLIGANETGDTE', '−0.557'),
  ('SSAP_105: SEQ ID NO: 274; unclassified Lysinibacillus (protein, listed as Lysinibacillus sp.) ATTTDLKAQMQQAPATQQKPKTIDDYLKQMAPAMAQALPKHMDVDRLMRLAMTTIRTTPALKDADVSSLLGAVMQAAQLGLEPGLMGHCYLLPFKNNKKGITEVQFIIGYKGMIDLARRSGHIQSIYAHAVYQKDEFEYELGLDPKLKHKPCMDEDKGNFVGAYAVAHFKDGGYQFEFMSKAEIEKRKGRSKAANSTYSPWATDYEEMAKKTVVRHMWKYLPISVEMQQQVAYDEGTAPKREMKDITPETEFFVDAPEIEVEVVNE', '−0.450');
